// provenance: patent US11925629B2

# Target Desc: ERK1 (Homo sapiens)
# Construct: purchased Jubilant Biosys
# Sequence (P27361 whole entry): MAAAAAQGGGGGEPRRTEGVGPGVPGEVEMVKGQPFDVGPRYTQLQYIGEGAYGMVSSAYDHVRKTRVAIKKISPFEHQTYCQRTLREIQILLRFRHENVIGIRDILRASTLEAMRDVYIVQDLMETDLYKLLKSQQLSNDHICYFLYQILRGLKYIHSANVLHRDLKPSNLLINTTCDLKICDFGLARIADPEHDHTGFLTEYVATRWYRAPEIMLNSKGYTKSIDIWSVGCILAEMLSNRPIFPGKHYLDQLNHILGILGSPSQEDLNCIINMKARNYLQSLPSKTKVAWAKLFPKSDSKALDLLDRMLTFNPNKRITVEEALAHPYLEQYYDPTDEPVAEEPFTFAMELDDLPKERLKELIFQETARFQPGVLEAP
# Assay Info: ERK1 HTRF (biochemical) assay
# Measurement Setup: HTRF
Property Label: IC50

// known answers, use as guide
1) Cc1cnc(N[C@H]2CCOC2)nc1-n1cnc(C(=O)NCc2cccc(C(F)(F)F)c2Cl)c1; 50 to 100 nM
2) Cc1cnc(N[C@H]2CCOC2)nc1-n1cnc(C(=O)NCc2ccc(Cl)c(F)c2)c1; < 50 nM
3) Cc1cnc(N[C@H]2CCOC2)nc1-n1cnc(C(=O)NCc2ccc(C(F)(F)F)c(F)c2)c1; 50 to 100 nM
4) Cc1cnc(N[C@H]2CCOC2)nc1-n1cnc(C(=O)NCc2cccc(Cl)c2Cl)c1; < 50 nM
5) CCC(=O)OCc1c(Cl)cccc1CNC(=O)c1cn(-c2nc(N[C@H]3CCOC3)ncc2C)cn1; 50 to 100 nM
6) Cc1cnc(N[C@H]2CCOC2)nc1-n1cnc(C(=O)NCc2c(F)cccc2F)c1; 500 to 2500 nM

Then there is this compound:
Query the reported IC50 for ERK1 (Homo sapiens); item: Cc1cnc(N[C@H]2CCOC2)nc1-n1cnc(C(=O)NCc2c(Cl)cccc2C(F)(F)F)c1
500 to 2500 nM

* * *

Examples of molecules with documented pIC50 follow.
# Tested on: HCT116 (colorectal carcinoma, K Ras G13D) cells
# Assay Info: Cell proliferation (Alamar Blue) assay, HCT116
# Type: cell-based, human
# Measurement Setup: Homo sapiens, HCT-116, HCT116 cells
# Method: Cell Proliferation (Alamar Blue) Assay HT-29 (colorectal carcinoma, B-RafV600E), HCT116 (colorectal carcinoma, K Ras G13D), A375 (melanoma, B-RafV600E) and SK-Mel2 (melanoma, NRAS Q61R) cells (obtained from ATCC, USA) were seeded (5000 cells/well) in 96-well tissue culture plate and incubated at 37° C./5% CO2 for 16-24 hours. […] The plates were read on fluorescence reader at 540 nm excitation and 590 nm emission wavelengths. […]
pIC50: −log10 of the molar value.

1) Cc1cnc(N[C@H]2CCOC2)nc1-n1cnc(C(=O)NCc2cccc(C(C)(C)C)c2)c1; < 5.60
2) CCC(C)Nc1ncc(C)c(-n2ccc(C(=O)N[C@H](CO)c3ccc(F)c(Cl)c3)c2)n1 (stereo partly shown); < 5.60
3) Cc1cnc(NC2CCOCC2)nc1-n1cnc(C(=O)N[C@H](CNCc2ccc[nH]2)c2cccc(Cl)c2)c1; ≥ 7.00
4) Cc1cnc(Nc2ccc(F)c(N3CCOCC3)c2)nc1-n1ccc(C(=O)NC(CO)c2cccc(Cl)c2)c1 (stereo not shown); 6.30 to 6.60
5) CCNc1ncc(C)c(-n2ccc(C(=O)NC(CO)c3ccccc3)c2)n1 (stereo not shown); < 5.60

What value of measured pIC50 is listed for Cc1cnc(N[C@H]2CCOC2)nc1-n1cnc(C(=O)NCc2ccc(C(F)(F)F)c(F)c2)c1 ?
< 5.60

What value of measured pIC50 is listed for COc1c(F)cccc1Nc1ncc(C)c(-n2ccc(C(=O)NC(CO)c3cccc(Cl)c3)c2)n1 (stereo not shown) ?
6.30 to 6.60

* * *

# Target Desc: ERK2 (Homo sapiens)
# Construct: purchased Jubilant Biosys
# Sequence (P28482 whole entry): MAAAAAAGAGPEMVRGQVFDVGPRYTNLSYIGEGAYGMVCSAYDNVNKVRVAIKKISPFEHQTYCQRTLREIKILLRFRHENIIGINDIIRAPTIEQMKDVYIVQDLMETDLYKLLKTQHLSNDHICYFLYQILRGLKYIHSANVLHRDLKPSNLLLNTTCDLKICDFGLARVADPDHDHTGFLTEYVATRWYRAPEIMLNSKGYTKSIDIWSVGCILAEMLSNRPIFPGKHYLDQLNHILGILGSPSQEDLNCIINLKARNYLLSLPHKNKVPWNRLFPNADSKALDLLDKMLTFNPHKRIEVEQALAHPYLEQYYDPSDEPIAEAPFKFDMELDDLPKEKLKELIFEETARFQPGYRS
# Assay Info: ERK2 HTRF (biochemical) assay
# Measurement Setup: HTRF biochemical assay
Property Label: IC50

// known answers, use as guide
1) Cc1cnc(NC2CCOCC2)nc1-n1cnc(C(=O)N[C@H](CN)c2cc(F)cc(Cl)c2)c1; ≤ 50 nM
2) Cc1cnc(NC2CCOCC2)nc1-n1cnc(C(=O)NC(CN)c2cc(F)cc(Cl)c2)c1 (centres unmarked); ≤ 50 nM
3) Cc1cnc(N[C@H]2CCOC2)nc1-n1cnc(C(=O)NC(CN)c2cc(F)cc(Cl)c2)c1 (some centres unmarked); ≤ 50 nM
4) Cc1cccc(CNC(=O)c2cn(-c3nc(NC4CCOCC4)ncc3C)cn2)n1; ≤ 50 nM

Then there is this compound:
What value of measured IC50 is listed for Cc1cnc(Nc2ccc3c(c2)OC(F)(F)O3)cc1-n1cnc(C(=O)NC(CO)c2ccccc2)c1 (centres unmarked) ?
50 to 100 nM

* * *

# Target Desc: ERK2 (Homo sapiens)
# Construct: purchased Jubilant Biosys
# Assay Info: ERK2 HTRF (biochemical) assay
# Measurement Setup: HTRF
pIC50: −log10 of the molar value.
Examples of compounds with documented pIC50 follow.

// known answers, use as guide
1) Cc1cnc(N[C@H]2CCOC2)nc1-n1cnc(C(=O)NCc2c(F)cccc2F)c1; 6.30 to 7.00
2) Cc1cccc(CNC(=O)c2cn(-c3nc(N[C@H]4CCOC4)ncc3C)cn2)c1; ≥ 7.30
3) Cc1cnc(N[C@H]2CCOC2)nc1-n1cnc(C(=O)NCc2c(Cl)cccc2C(F)(F)F)c1; 5.60 to 6.30
4) CCC(=O)OCc1c(Cl)cccc1CNC(=O)c1cn(-c2nc(N[C@H]3CCOC3)ncc2C)cn1; ≥ 7.30
5) Cc1cnc(N[C@H]2CCOC2)nc1-n1cnc(C(=O)NCc2cccc(Cl)c2Cl)c1; ≥ 7.30
6) Cc1cnc(N[C@H]2CCOC2)nc1-n1cnc(C(=O)NC(C)(C)c2cccc(Cl)c2CO)c1; 7.00 to 7.30
7) Cc1cnc(N[C@H]2CCOC2)nc1-n1cnc(C(=O)NCc2cccc(C(F)(F)F)c2Cl)c1; ≥ 7.30

Query the reported pIC50 for ERK2 (Homo sapiens); item: Cc1cnc(N[C@H]2CCOC2)nc1-n1cnc(C(=O)NCc2ccc(Cl)c(F)c2)c1
≥ 7.30

* * *

Examples of compounds with documented IC50 follow.
# Tested on: HCT116 (colorectal carcinoma, K Ras G13D) cells
# Assay Info: Cell proliferation (Alamar Blue) assay, HCT116
# Type: cell-based, human
# Measurement Setup: Homo sapiens, HCT-116, HCT116 cells
# Protocol: Cell Proliferation (Alamar Blue) Assay HT-29 (colorectal carcinoma, B-RafV600E), HCT116 (colorectal carcinoma, K Ras G13D), A375 (melanoma, B-RafV600E) and SK-Mel2 (melanoma, NRAS Q61R) cells (obtained from ATCC, USA) were seeded (5000 cells/well) in 96-well tissue culture plate and incubated at 37° C./5% CO2 for 16-24 hours. […] The plates were read on fluorescence reader at 540 nm excitation and 590 nm emission wavelengths. […]

1) Cc1cnc(NC2CCOCC2)nc1-n1cnc(C(=O)NC(CO)c2cccc(C(C)(C)C)c2)c1 (centres unmarked) [Example 258]; 0.5 to 2.5 µM
2) Cc1cnc(N[C@H]2CCOC2)nc1-n1ccc(C(=O)N(C)C(CO)c2cccc(Cl)c2)c1 (some centres unmarked) [Example 212]; > 2.5 µM
3) CC(=O)OCc1c(Cl)cccc1CNC(=O)c1cn(-c2nc(N[C@H]3CCOC3)ncc2C)cn1 [Example 342]; ≤ 0.1 µM
4) CC[C@H](CO)Nc1ncc(C)c(-n2cnc(C(=O)NCc3cccc(Cl)c3CO)c2)n1 [Example 336]; 0.1 to 0.25 µM

What value of measured IC50 is listed for Cc1cnc(Nc2ccc3c(c2)OCO3)nc1-n1ccc(C(=O)NC(CO)c2ccccc2)c1 (centres unmarked) [Example 47] ?
0.25 to 0.5 µM

What value of measured IC50 is listed for Cc1cnc(Nc2cccnc2)cc1-n1ccc(C(=O)NC(CO)c2ccc(F)c(Cl)c2)c1 (centres unmarked) [Example 171] ?
> 2.5 µM

What value of measured IC50 is listed for O=C(Nc1cnn(-c2ccnc(Nc3ccccc3Cl)n2)c1)N[C@H](CO)c1cccc(Cl)c1 [Example 1] ?
> 2.5 µM

What value of measured IC50 is listed for Cc1cnc(Nc2ccc3c(c2)OCO3)nc1-n1cc(NC(=O)N[C@@H](CO)c2cccc(Cl)c2)cn1 [Example 51] ?
> 2.5 µM

* * *

Examples of compounds with documented IC50 follow.
# Tested on: HCT116 (colorectal carcinoma, K Ras G13D) cells
# Assay Info: Cell proliferation (Alamar Blue) assay, HCT116
# Assay type: cell-based, human
# Measurement Setup: Homo sapiens, HCT-116, HCT116 cells

Query the reported IC50 for HCT116 (colorectal carcinoma, K Ras G13D) cells; item: Cc1cnc(Nc2ccc(F)cc2)nc1-n1ccc(C(=O)N[C@H](CO)c2ccc(F)c(Cl)c2)c1
250 to 500 nM

Query the reported IC50 for HCT116 (colorectal carcinoma, K Ras G13D) cells; item: O=C(NC(CO)c1ccccc1)c1ccn(-c2nc(Nc3ccc4c(c3)OCO4)ncc2F)c1 (centres unmarked)
500 to 2500 nM

Query the reported IC50 for HCT116 (colorectal carcinoma, K Ras G13D) cells; item: O=C(Nc1cnn(-c2ccnc(N[C@H]3CC[C@H](O)CC3)n2)c1)N[C@H](CO)c1cccc(Cl)c1
> 2500 nM

Query the reported IC50 for HCT116 (colorectal carcinoma, K Ras G13D) cells; item: Cc1cnc(N[C@H]2CCOC2)nc1-n1ccc(C(=O)N[C@H](CO)c2cccc(Cl)c2)c1
250 to 500 nM

Query the reported IC50 for HCT116 (colorectal carcinoma, K Ras G13D) cells; item: Cc1cccc([C@@H](CO)NC(=O)c2ccn(-c3nc(N[C@H]4CCOC4)ncc3C)c2)n1
> 2500 nM

Query the reported IC50 for HCT116 (colorectal carcinoma, K Ras G13D) cells; item: Cc1cnc(NC2CCCOC2)nc1-n1ccc(C(=O)NC(CO)c2ccccc2)c1 (centres unmarked)
> 2500 nM

Query the reported IC50 for HCT116 (colorectal carcinoma, K Ras G13D) cells; item: Cc1cnc(Nc2ccc3c(c2)OCO3)nc1-n1cnc(C(=O)N[C@H](CN)c2cccc(Cl)c2)c1
≤ 100 nM

Query the reported IC50 for HCT116 (colorectal carcinoma, K Ras G13D) cells; item: Cc1cnc(Nc2ccc(F)cc2Cl)nc1-n1cc(C(=O)NC(CN)c2ccccc2)cn1 (centres unmarked)
> 2500 nM
